- System: HaCaT cells
- protocol-description: MTT cytotoxicity assay, HaCaT (non-cancer)
- Type: cell-based, human
- particulars: Homo sapiens, HaCaT, 24 h
measurement-type: IC50 (µM)

- mol: "CCN(CC)CP(c1ccccc1)c1ccccc1"
  system-name: "HaCaT cells"
  measurement-type: "IC50"
  numeric-readout: 646
- mol: "CCCCN(CCCC)CP(c1ccccc1)c1ccccc1"
  system-name: "HaCaT cells"
  measurement-type: "IC50"
  numeric-readout: 556

###

# IC50 per entry
- Tested on: PANC-1 cells
- protocol-description: MTT cytotoxicity assay, PANC-1
- Assay type: cell-based, human
- particulars: 24 h
measurement-type: IC50 (µM)

- compound: "N.N.[Cl][Pt][Cl] [Cisplatin, reference compound]"
  system-name: "PANC-1 cells"
  measurement-type: "IC50"
  numeric-readout: 166
- compound: "CCCCN(CCCC)C[P+](c1ccccc1)(c1ccccc1)[Ir-3]([Cl])([Cl])[C]1(C)C(C)=C(C)C(C)=C1C [2a, Ir(η^5-Cp*)Cl2Ph2PCH2N(CH2CH2CH2CH3)2]"
  system-name: "PANC-1 cells"
  measurement-type: "IC50"
  numeric-readout: 106
- compound: "CCN(CC)C[P+](c1ccccc1)(c1ccccc1)[Ir-3]([Cl])([Cl])[C]1(C)C(C)=C(C)C(C)=C1C [1a, Ir(η^5-Cp*)Cl2Ph2PCH2N(CH2CH3)2]"
  system-name: "PANC-1 cells"
  measurement-type: "IC50"
  numeric-readout: 143

###

- Tested on: A549 cells
- protocol-description: MTT cytotoxicity assay, A549
- Format: cell-based, human
- particulars: Homo sapiens, A549, 24 h
pIC50: −log10 of the molar value.
# pIC50 per entry
measurement-type: pIC50

- compound: "CCCCN(CCCC)CP(c1ccccc1)c1ccccc1 [compound 2, Ph2PCH2N(CH2CH2CH2CH3)2]"
  system-name: "A549 cells"
  numeric-readout: 3.24
- compound: "CCN(CC)CP(c1ccccc1)c1ccccc1 [compound 1, Ph2PCH2N(CH2CH3)2]"
  system-name: "A549 cells"
  numeric-readout: 3.21

###

# IC50 per entry
- Tested on: HaCaT cells
- protocol-description: MTT cytotoxicity assay, HaCaT (non-cancer)
- Format: cell-based, human
- particulars: 72 h
measurement-type: IC50 (µM)

- compound: "CCNCC [diethylamine]"
  measurement-type: "IC50"
  value-comparator: ">"
  numeric-readout: 1000
- compound: "N.N.[Cl][Pt][Cl] [Cisplatin, reference compound]"
  measurement-type: "IC50"
  value-comparator: "="
  numeric-readout: 102
- compound: "CCN(CC)C[P+](c1ccccc1)(c1ccccc1)[Ir-3]([Cl])([Cl])[C]1(C)C(C)=C(C)C(C)=C1C [1a, Ir(η^5-Cp*)Cl2Ph2PCH2N(CH2CH3)2]"
  measurement-type: "IC50"
  value-comparator: "="
  numeric-readout: 320
- compound: "CCCCN(CCCC)C[P+](c1ccccc1)(c1ccccc1)[Ir-3]([Cl])([Cl])[C]1(C)C(C)=C(C)C(C)=C1C [2a, Ir(η^5-Cp*)Cl2Ph2PCH2N(CH2CH2CH2CH3)2]"
  measurement-type: "IC50"
  value-comparator: "="
  numeric-readout: 302

###

- Test system: HaCaT cells
- protocol-description: MTT cytotoxicity assay, HaCaT (non-cancer)
- Type: cell-based, human
- particulars: 24 h

- compound: "CCCCN(CCCC)C[P+](c1ccccc1)(c1ccccc1)[Ir-3]([Cl])([Cl])[C]1(C)C(C)=C(C)C(C)=C1C [2a, Ir(η^5-Cp*)Cl2Ph2PCH2N(CH2CH2CH2CH3)2]"
  IC50 (µM): 559
- compound: "CCN(CC)C[P+](c1ccccc1)(c1ccccc1)[Ir-3]([Cl])([Cl])[C]1(C)C(C)=C(C)C(C)=C1C [1a, Ir(η^5-Cp*)Cl2Ph2PCH2N(CH2CH3)2]"
  IC50 (µM): 456
- compound: "N.N.[Cl][Pt][Cl] [Cisplatin, reference compound]"
  IC50 (µM): 400
